In this section, each of the compounds is paired with its reported pIC50.
Biological target: A disintegrin and metalloproteinase with thrombospondin motifs 5 (Homo sapiens, UniProt Q9UNA0)
Sequence (Q9UNA0 whole entry): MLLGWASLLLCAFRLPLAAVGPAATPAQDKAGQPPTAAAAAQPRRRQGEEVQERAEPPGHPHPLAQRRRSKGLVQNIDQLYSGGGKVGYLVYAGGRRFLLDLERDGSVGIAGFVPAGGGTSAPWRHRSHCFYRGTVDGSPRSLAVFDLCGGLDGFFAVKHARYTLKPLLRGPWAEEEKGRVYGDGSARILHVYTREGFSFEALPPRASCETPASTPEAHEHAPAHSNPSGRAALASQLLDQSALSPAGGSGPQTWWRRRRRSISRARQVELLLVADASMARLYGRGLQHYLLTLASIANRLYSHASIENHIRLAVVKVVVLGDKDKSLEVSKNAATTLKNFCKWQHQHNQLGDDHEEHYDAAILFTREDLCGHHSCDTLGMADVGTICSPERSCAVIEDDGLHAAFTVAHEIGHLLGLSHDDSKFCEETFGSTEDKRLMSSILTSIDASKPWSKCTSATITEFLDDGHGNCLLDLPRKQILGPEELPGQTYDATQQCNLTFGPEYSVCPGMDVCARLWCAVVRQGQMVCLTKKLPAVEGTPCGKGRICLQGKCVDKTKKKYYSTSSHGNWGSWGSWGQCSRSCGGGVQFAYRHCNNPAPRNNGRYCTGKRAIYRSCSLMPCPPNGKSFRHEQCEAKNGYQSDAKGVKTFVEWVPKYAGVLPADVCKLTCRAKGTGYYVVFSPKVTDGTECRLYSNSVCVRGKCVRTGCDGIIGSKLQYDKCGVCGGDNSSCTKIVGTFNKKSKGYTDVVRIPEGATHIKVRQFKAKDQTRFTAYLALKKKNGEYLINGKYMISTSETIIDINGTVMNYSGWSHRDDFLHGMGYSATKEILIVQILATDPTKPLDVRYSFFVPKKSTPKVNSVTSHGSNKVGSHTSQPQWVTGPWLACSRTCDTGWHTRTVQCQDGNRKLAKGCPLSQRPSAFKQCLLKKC
Experiment: Inhibition of human recombinant ADAMTS-5 using QTVTWPDMELPLPRNITEGEARGSVIL-TVKPIFEVSPSPL(biotinyl)K as substrate incubated 10 mins prior to substrate addition measured after 3 hrs by spectrophotometry
pIC50: −log10 of the molar value.
endpoint: pIC50

compound | signQualifier | numericResult
O=C(COc1cccc2ccccc12)NNC(=S)NCc1ccc(-c2ccccc2)cc1 | = | 5.39
O=C(COc1ccc(Cl)cc1)NNC(=S)NCCCc1ccccc1 | = | 5.85
O=C(Cc1nc(-c2ccccc2)no1)NNC(=S)NCCCCC1CCCCC1 | = | 6.47
COc1ccc(OCC(=O)NNC(=S)NCCCCC2CCCCC2)cc1 | < | 4.00
O=C(NNC(=S)NCc1ccc(-c2ccccc2)cc1)c1ccc(Cl)cc1 | = | 6.15
CN(CCCCc1ccccc1)C(=S)NNC(=O)COc1ccc(Cl)cc1 | = | 5.96
O=C(NNC(=S)NCc1ccc(-c2ccccc2)cc1)C1CNc2cc(Cl)ccc2O1 (stereo not given) | = | 5.48
CC(C)(Oc1ccc(Cl)cc1)C(=O)NNC(=S)NCc1ccc(-c2ccccc2)cc1 | = | 5.16
O=C(COc1ccc(Cl)cc1)NNC(=S)NCCCCC1CCCCC1 | = | 6.77
O=C(CNc1ccc(Cl)cc1)NNC(=S)NCc1ccc(-c2ccccc2)cc1 | = | 5.20
O=C(COc1ccccc1Cl)NNC(=S)NCc1ccc(-c2ccccc2)cc1 | = | 5.72
O=C(COc1ccc(Cl)cc1)NCC(=S)NCc1ccc(-c2ccccc2)cc1 | < | 4.00
O=C(COc1ccc(Cl)cc1)NNC(=S)NCc1ccccc1-c1ccccc1 | = | 6.31
O=C(COc1ccc(F)cc1)NNC(=S)NCc1ccc(-c2ccccc2)cc1 | = | 4.00
O=C(COc1ccc([N+](=O)[O-])cc1)NNC(=S)NCc1ccc(-c2ccccc2)cc1 | = | 5.40
O=C(COc1ccc(Cl)cc1Cl)NNC(=S)NCc1ccc(-c2ccccc2)cc1 | = | 5.92
O=C(COc1ccc(C(F)(F)F)cc1)NNC(=S)NCCCCC1CCCCC1 | = | 6.27
O=C(Cc1ccc(-c2ccccc2)cc1)NNC(=S)NCCc1ccc(Cl)cc1 | = | 5.28
O=C(COc1cccc2ccccc12)NNC(=S)NCCCCC1CCCCC1 | = | 6.06
O=C(COc1cccc(Cl)c1)NNC(=S)NCc1ccc(-c2ccccc2)cc1 | = | 5.68
O=C(COc1ccc(-c2ccccc2)cc1)NNC(=S)NCc1ccc(-c2ccccc2)cc1 | = | 4.22
O=C(COc1ccc(OCc2ccccc2)cc1)NNC(=S)NCc1ccc(-c2ccccc2)cc1 | = | 6.00
O=C(NNC(=S)NCCCCC1CCCCC1)c1ccc(Cl)cc1 | = | 6.17
O=C(COc1ccc2ccccc2c1)NNC(=S)NCc1ccc(-c2ccccc2)cc1 | = | 5.49
O=C(COc1ccc(C(F)(F)F)cc1)NNC(=S)NCc1ccc(-c2ccccc2)cc1 | = | 5.77
O=C(COc1ccc(Cl)cc1)NNC(=S)NCc1ccccc1 | = | 4.90
CC(=O)NNC(=S)NCCCCC1CCCCC1 | < | 4.00
O=C(COc1ccc(Cl)cc1)NNC(=S)NCCCCc1ccccc1 | = | 6.00
O=C(COc1ccc(Cl)cc1)NNC(=S)NCCc1ccccc1 | = | 5.55
O=C(COc1ccc(Cl)cc1)Nn1ccn(Cc2ccc(-c3ccccc3)cc2)c1=S | < | 4.00
O=C(COc1ccc(Cl)cc1)NNC(=S)NCc1cccc(-c2ccccc2)c1 | = | 5.64
O=C(COc1ccc(Cl)cc1)NNC(=S)NCCCn1ccnc1 | = | 5.80
CN(NC(=S)NCc1ccc(-c2ccccc2)cc1)C(=O)COc1ccc(Cl)cc1 | < | 4.00
CN(NC(=S)NCCCCC1CCCCC1)C(=O)COc1ccc(Cl)cc1 | < | 4.00
O=C(Cc1nc(-c2cnccn2)no1)NNC(=S)NCCCCC1CCCCC1 | = | 5.51
